Entry source: patent US5750530A

Assayed target: PAI-1 (Homo sapiens, UniProt P05121)
Sequence (P05121 24-402): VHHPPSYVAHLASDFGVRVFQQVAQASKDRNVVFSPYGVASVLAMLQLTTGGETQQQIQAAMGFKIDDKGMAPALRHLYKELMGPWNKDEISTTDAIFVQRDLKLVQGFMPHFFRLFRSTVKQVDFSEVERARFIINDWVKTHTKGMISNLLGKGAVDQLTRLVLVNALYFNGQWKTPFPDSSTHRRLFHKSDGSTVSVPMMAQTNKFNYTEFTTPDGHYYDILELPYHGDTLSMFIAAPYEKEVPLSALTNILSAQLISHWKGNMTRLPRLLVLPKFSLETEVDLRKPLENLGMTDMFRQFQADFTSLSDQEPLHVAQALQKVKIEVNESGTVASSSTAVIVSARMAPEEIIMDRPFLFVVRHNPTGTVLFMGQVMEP
Method: biochemical
Type: biochemical
Condition label: PAI chromogenic substrate assay
pIC50: −log10 of the molar value. Counter-ions that a name gives are not always drawn.
Measured endpoint: pIC50

| Compound | pIC50 |
| --- | --- |
| CN(C)CCSc1ccc(/C=c2\[nH]c(=O)/c(=C/c3ccc(OCc4ccccc4)cc3)[nH]c2=O)cc1 | 4.70 |
| CN(C)CCSc1ccc(/C=c2\[nH]c(=O)/c(=C/c3cn(C)c4ccccc34)[nH]c2=O)s1 [Compound 5473] | 4.86 |

(a) CN(C)CCSc1ccc(/C=c2\[nH]c(=O)/c(=C/c3cccc(OCc4ccccc4)c3)[nH]c2=O)cc1
(b) CN(C)CCSc1ccc(/C=c2\[nH]c(=O)/c(=C/c3cccc(Cl)c3)[nH]c2=O)cc1 [Compound 5292.HCl]
**Query** Between the two listed entries a and b , which has its pIC50 at the higher number? Let me know the label of the one you choose.
**Result** b

* * *

Assayed target: PAI-1 (Homo sapiens, UniProt P05121)
Method: biochemical
Type: biochemical
Condition label: 20 μm
Protocol: The present compounds have been tested in a PAI functional assay. In this assay, a compound is incubated with PAI-1 prior to addition to the tPA assay system. Inhibition of PAI-1 results in the production of plasmin from plasminogen. In turn, plasmin cleaves the chromogenic substrate S2251 (Kabi Vitrum) producing pNA (p-nitroaniline) which is detected spectrophotometrically at 405 nm (K. Nilsson et al, Fibrinolysis (1987) 1, 163-168). […]
Counter-ions that a name gives are not always drawn.
Measured endpoint: % Inhibition (%)

See these solved cases before continuing.
| Compound | Observed result |
| --- | --- |
| COc1cccc(/C=c2\[nH]c(=O)/c(=C/c3ccc(SCCN(C)C)cc3)[nH]c2=O)c1 [Compound 5438] | 18 |
| CC(C)/C=c1\[nH]c(=O)/c(=C/c2ccc(SCCN(C)C)s2)[nH]c1=O [Compound 5448] | 0 |
| CN(C)CCSc1ccc(/C=c2\[nH]c(=O)/c(=C/c3ccc(Cl)cc3)[nH]c2=O)cc1 [Compound 5437.HCl] | 44 |

(1) CN(C)CCSc1ccc(/C=c2\[nH]c(=O)/c(=C/c3ccc4ccccc4c3)[nH]c2=O)s1 [Compound 5286]
(2) CN(C)CCSc1ccc(/C=c2\[nH]c(=O)/c(=C/c3cccc(C#N)c3)[nH]c2=O)cc1 [Compound 5476]
**Query** Between the two listed entries 1 and 2 , which has its % Inhibition at the higher number? Let me know the label of the one you choose.
**Result** 1

(a) CN(C)CCSc1ccc(/C=c2\[nH]c(=O)/c(=C/c3cccc(C(F)(F)F)c3)[nH]c2=O)s1 [Compound 5315.HCl]
(b) CN(C)CCSc1ccc(/C=c2\[nH]c(=O)/c(=C/c3ccc(Cl)c(Cl)c3)[nH]c2=O)cc1 [Compound 5465.HCl]
**Query** Between the two listed entries a and b , which has its % Inhibition at the higher number? Let me know the label of the one you choose.
**Result** b
(b: 76%, a: 10%)

* * *

Assayed target: PAI-1 (Homo sapiens)
Method: biochemical
Type: biochemical
Condition label: 5 μm
Where a name gives a salt, the structure may show the parent alone.
Measured endpoint: % Inhibition (%)

See these solved cases before continuing.
| Molecule | Observed result |
| --- | --- |
| CN(C)CCSc1ccc(/C=c2\[nH]c(=O)/c(=C/c3cn(C)c4ccccc34)[nH]c2=O)s1 [Compound 5473.HCl] | 10 |
| CN(C)CCSc1ccc(/C=c2\[nH]c(=O)/c(=C/c3ccc(Br)cc3)[nH]c2=O)s1 [Compound 5489.HCl] | 9 |

(P) CN(C)CCSc1ccc(/C=c2\[nH]c(=O)/c(=C/c3ccc(Cl)c(Cl)c3)[nH]c2=O)cc1 [Compound 5465]
(Q) COc1cc(/C=c2\[nH]c(=O)/c(=C/c3ccc(SCCN(C)C)s3)[nH]c2=O)ccc1OCc1ccc([N+](=O)[O-])cc1 [Compound 5488.HCl]
**Query** Smaller % Inhibition value? Options are P and Q Let me know the label of the one you choose.
**Result** Q
(Q: 15%, P: 32%)
